src = patent US20110319360A1

# Test system: normal PBMCs
# assay-name: [3H]-thymidine proliferation assay, mitogen-stimulated normal PBMCs
# Format: cell-based, human
# experimental-conditions: Homo sapiens, PBMC, 96 h, PMA/Iono, 96 hours; read-out: IC50 for suppression of mitogen-induced proliferation
experimental-endpoint: IC50 (nM)
Report as a plain number; the unit nM is understood.

Report IC50 for Nc1nc(F)nc2c1ncn2[C@@H]1O[C@H](COP(=O)(O)O)[C@@H](O)[C@@H]1O [Fludarabine, fludarabine phosphate, reference compound] tested on normal PBMCs.
800

====

# System: normal PBMCs
# assay-name: [3H]-thymidine proliferation assay, mitogen-stimulated normal PBMCs
# Assay type: cell-based, human
# experimental-conditions: Homo sapiens, PBMC, 96 h, Con A, 96 hours; read-out: IC50 for suppression of mitogen-induced proliferation
# Protocol: CLL cells (2×10^5 cells/well) were cultured in quadruplicate in a volume of 200 μl in 96-well tissue culture plates for 96 hours with 1 μM CpG-oligodeoxynucleotides (ODN) DSP30 (Reference 14) (Midland Certified Reagent Company, Midland, Tex.) and 100 units/ml IL-2 (R&D Systems) in the presence or absence of drug. […] [^3H]-thymidine incorporation was measured as counts per minute (cpm) using a Tri-Carb 2100 timed-resolved liquid scintillation counter (PerkinElmer). […]
# key: entry, value: pIC50
Note: pIC50 values are expressed as the negative base-10 logarithm of concentration in M.

Given Nc1nc(Cl)c2ncn(CCCCCB(O)O)c2n1 , state its recorded pIC50.
4.15

New cases:
Given Nc1nc(Cl)nc2c1ncn2[C@H]1C[C@H](O)[C@@H](CO)O1 , state its recorded pIC50.
6.82

====

# Test system: CLL cells
# assay-name: MTS cytotoxicity assay on primary CLL cells
# Format: cell-based
# experimental-conditions: Homo sapiens, CLL cell, 72 h, primary CLL cells, 72 hours, MTS, mean of 35 samples; read-out: mean concentration required to induce 50% cytotoxicity (ED50)
# Text: On the same day that heparin-anticoagulated venous blood was collected from participants, CLL cells were purified by methods described previously (Reference 11). Briefly, CLL cells were isolated from whole blood using the RosetteSep® B-cell enrichment cocktail (Stem Cell Technologies, Vancouver, BC, Canada) together with ficoll-Hypaque density gradient centrifugation. This method yielded CLL cell purity of greater than 95% CD5^+CD19^+ B-cells. […]
experimental-endpoint: pEC50
Note: pEC50 values are expressed as the negative base-10 logarithm of concentration in M.

Given Nc1nc(Cl)c2ncn(CCCCCB(O)O)c2n1 [LMP-420] , state its recorded pEC50.
6.61

====

# System: CLL cells
# assay-name: MTS cytotoxicity assay on primary CLL cells
# Format: cell-based
# experimental-conditions: Homo sapiens, CLL cell, CLL samples with favorable risk cytogenetic aberrations, n=27; read-out: range of MTS ED50
pEC50: −log10 of the molar value.
experimental-endpoint: pEC50

Given Nc1nc(Cl)c2ncn(CCCCCB(O)O)c2n1 [LMP-420] , state its recorded pEC50.
5.60 to 7.57

====

# Test system: normal PBMCs
# assay-name: MTS cytotoxicity assay on PBMCs from normal donors
# Type: cell-based, human
# experimental-conditions: Homo sapiens, PBMC; 72 hours, MTS, not reached at up to 512 μM; read-out: median ED50 on normal PBMCs
experimental-endpoint: EC50

Given Nc1nc(Cl)c2ncn(CCCCCB(O)O)c2n1 [LMP-420] , state its recorded EC50.
> 512 µM
